Source listed as BindingDB's records for doi:10.1021/jm970640l.

- Method description: Inhibitory activity against hydrolysis of Gly-Pro-pNa by Dipeptidyl peptidase IV purified from CD26-negative C8166 cells
Reported property: pIC50
API: returns pIC50 as number; meaning -log10 of concentration in mol/L.

Requested field: pIC50. Item: `CCCCCCCC[S+](CCCCCCCC)Cc1ccc2cc1C(=O)NCC(=O)NCC(=O)NCCCC[C@H](N)C(=O)N1CCC[C@H]1C(=O)N2`
6.20
